Test system: 171881-019-R-J1-PDC complex spheroid viability;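 note: spheroids exposed to agents for 7 days after 3 days growth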
MEASUREMENT_PROTOCOL: Anticancer human tumor 171881-019-R-J1-PDC patient-derived invasive breast carcinoma cell line growth inhibition
RECORDED_CONDITIONS: second compound 3.16 µM; first compound 0.03 µM; active compounds read low
viability, T/C for assorted molecules
Provide only the numeric value, understood in %.

[in] Recorded viability, T/C for COc1cc(C2c3cc4c(cc3C(OC3OC5COC(C)OC5C(O)C3O)C3COC(=O)C23)OCO4)cc(OC)c1O (centres undefined) + NC1CC1c1ccc(-c2cccc(O)c2)cc1 with 171881-019-R-J1-PDC complex spheroid viability, please?
[out] 99.9

[in] Recorded viability, T/C for NS(=O)(=O)OCC1CC(n2ccc3c(NC4CCc5ccccc54)ncnc32)CC1O (centres undefined) + NC1CC1c1ccc(-c2cccc(O)c2)cc1 with 171881-019-R-J1-PDC complex spheroid viability, please?
[out] 31.2

[in] Recorded viability, T/C for CCN(c1cc(-c2ccc(CN3CCOCC3)cc2)cc(C(=O)NCc2c(C)cc(C)[nH]c2=O)c1C)C1CCOCC1 + NC1CCC(NC2CC2c2ccccc2)CC1 with 171881-019-R-J1-PDC complex spheroid viability, please?
[out] 81.7

[in] Recorded viability, T/C for Nc1ccccc1NC(=O)c1ccc(CNC(=O)OCc2cccnc2)cc1 + NC1CCC(NC2CC2c2ccccc2)CC1 with 171881-019-R-J1-PDC complex spheroid viability, please?
[out] 96

Hello, the source for this data is PubChem BioAssay AID1918932, in case you need it.
